Biological target: RELA (p65) subunit of heterodimer;p50 subunit (Homo sapiens;Homo sapiens, UniProt Q04206;P19838 1-307;7-356)
Sequence (Q04206 1-307, chain 1 of 2): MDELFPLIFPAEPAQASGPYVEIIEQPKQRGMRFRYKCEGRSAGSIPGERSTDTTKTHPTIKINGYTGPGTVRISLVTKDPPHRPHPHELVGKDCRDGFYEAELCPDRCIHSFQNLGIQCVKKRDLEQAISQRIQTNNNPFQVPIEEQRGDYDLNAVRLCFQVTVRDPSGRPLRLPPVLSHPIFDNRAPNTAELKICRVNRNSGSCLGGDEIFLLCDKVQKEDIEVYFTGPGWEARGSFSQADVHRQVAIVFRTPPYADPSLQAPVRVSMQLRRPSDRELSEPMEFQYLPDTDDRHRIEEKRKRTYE
Sequence (P19838 7-356, chain 2 of 2): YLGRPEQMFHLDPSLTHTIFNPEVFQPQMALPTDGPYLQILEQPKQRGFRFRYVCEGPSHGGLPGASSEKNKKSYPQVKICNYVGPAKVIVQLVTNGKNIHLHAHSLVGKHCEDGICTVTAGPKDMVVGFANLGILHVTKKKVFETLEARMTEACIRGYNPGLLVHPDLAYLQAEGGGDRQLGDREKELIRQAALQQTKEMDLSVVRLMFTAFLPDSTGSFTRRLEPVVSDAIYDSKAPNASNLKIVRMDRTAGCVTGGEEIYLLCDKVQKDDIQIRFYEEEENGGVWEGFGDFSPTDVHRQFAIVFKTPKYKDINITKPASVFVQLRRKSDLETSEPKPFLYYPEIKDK
Experiment: protein binding microarray; high values mean tight binding
Details: dsDNA, one strand shown
Simple rule here: binding signal less than 0.5 z-score is T, otherwise F.

Solved entries:
*Q* Is binding signal of `AGAGATGCCCT` strictly below 0.5 z-score?
*A* T

*Q* Is binding signal of `AAGTAGACCCT` strictly below 0.5 z-score?
*A* T

*Q* Is binding signal of `GGGATTCTCCC` strictly below 0.5 z-score?
*A* F

*Q* Is binding signal of `CGGTGCTTCCC` strictly below 0.5 z-score?
*A* F

*Q* Is binding signal of `CGGATAATCCT` strictly below 0.5 z-score?
*A* T

*Q* Is binding signal of `AAGGTATTCCT` strictly below 0.5 z-score?
*A* T

*Q* Is binding signal of `AGATAAGTCCC` strictly below 0.5 z-score?
*A* F

*Q* Is binding signal of `GAATTCGCCCT` strictly below 0.5 z-score?
*A* T

More entries:
*Q* Is binding signal of `AAAATAGTCCT` strictly below 0.5 z-score?
*A* T

*Q* Is binding signal of `AGATGTTTCCC` strictly below 0.5 z-score?
*A* F

*Q* Is binding signal of `GAAGGCATCCT` strictly below 0.5 z-score?
*A* T

Reference source: paper PMC3218832
